These data points were gathered from patent US6492421B1.

Catalogue of molecules with associated melting point

Please give the measured melting point for this molecule: CN(C)CCCOc1ccc(C[C@H](NC(=O)[C@@H]2CCCN2S(=O)(=O)c2cccs2)C(=O)O)cc1 [Example 24]
> 200 °C

What do you get for CN(C)CCCOc1ccc(C[C@H](NC(=O)[C@@H]2CCCN2S(=O)(=O)c2cc(Cl)sc2Cl)C(=O)O)cc1 [Example 27] ?
> 200 °C

Then this molecule: CCN(CC)CCOc1ccc(C[C@H](NC(=O)[C@@H]2CCCN2S(=O)(=O)c2ccc(C)cc2)C(=O)O)cc1 [Example 26]
105 to 109 °C

Consider next the molecule Cc1ccc(S(=O)(=O)N2CCC[C@H]2C(=O)N[C@@H](Cc2ccc(OCC(=O)NC(C)(C)C)cc2)C(=O)O)cc1 [Example 59] in the same way.
88 to 89 °C

Try the molecule `COC(=O)[C@H](Cc1ccc(OCCN2CCC(O)(c3ccccc3)CC2)cc1)NC(=O)[C@@H]1CCCN1S(=O)(=O)c1ccc(C)cc1`
122 to 123 °C

Continuing:
// returns reported melting point for input COC(=O)[C@H](Cc1ccc(N(CCCN(C)C)S(=O)(=O)C(F)(F)F)cc1)NC(=O)[C@@H]1CCCN1S(=O)(=O)c1ccc(C)cc1 [Example 16]
45 to 55 °C

Repeat for the following molecule: Cc1ccc(S(=O)(=O)N2CCC[C@H]2C(=O)N[C@@H](Cc2ccc(OCC(=O)O)cc2)C(=O)O)cc1 [Example 56]
70 to 73 °C
